protocolDescription: Pharmacokinetic study after single-dose oral administration (HPLC-UV)
Assay type: in vivo, SD rats
testContext: SD, rat, plasma, po, 500 mg/kg, rats, single oral dose 500 mg/kg, n = 6; read-out: AUClast (area under the concentration-time curve from t = 0 to the last time)
measurementType: AUC(0-t) (ng·h/mL)
Give bare numbers, in ng·h/mL.

Request: Return reported AUC(0-t). Input compound: CC1(C)CCC2(C(=O)O)CC[C@]3(C)C(=CC=C4[C@@]5(C)CCC(=O)C(C)(C)[C@@H]5CC[C@]43C)C2C1 (stereo partly shown) [Oxy-Di-OA]
Response: 88000

====

protocolDescription: Pharmacokinetic study after single-dose oral administration (HPLC-UV)
Type: in vivo, SD rats
testContext: SD, rat, plasma; rats, single oral dose 500 mg/kg, n = 6; read-out: t1/2 (elimination half-life) (converted)
measurementType: half-life (h)
Numbers only, in h.

Request: Read off the recorded half-life for CC1(C)CCC2(C(=O)O)CC[C@]3(C)C(=CC=C4[C@@]5(C)CCC(=O)C(C)(C)[C@@H]5CC[C@]43C)C2C1 (stereo partly shown)
Response: 2.19
